Test: AUC (0 to infinity) in Sprague-Dawley rat at 2 mg/kg, iv measured upto 48 hrs by UPLC-triple quadrupole MS analysis
Format: ADME, organism-based
Parameters: time < 48 hrs, dose 2 mg/kg, route iv
Details: in vivo
experimental_endpoint: AUC(0-inf) (ng·h/mL)
The figure you give is taken to be in ng·h/mL; do not add the unit.

Sample O=C(/C=C/C(=O)Nc1ccc(NC(=O)c2ccc([N+](=O)[O-])o2)cc1)NCCCCCCNc1cccc2c1C(=O)N(C1CCC(=O)NC1=O)C2=O (stereo unspecified) — what was its AUC(0-inf)?
259

----------
Experiment: MRT (0 to infinity) in Sprague-Dawley rat at 2 mg/kg, iv measured upto 48 hrs by UPLC-triple quadrupole MS analysis
Type: ADME, organism-based
Details: in vivo
experimental_endpoint: MRT inf (h)
The figure you give is taken to be in h; do not add the unit.

Sample O=C(/C=C/C(=O)Nc1ccc(NC(=O)c2ccc([N+](=O)[O-])o2)cc1)NCCCCCCNc1cccc2c1C(=O)N(C1CCC(=O)NC1=O)C2=O (stereo unspecified) — what was its MRT inf?
1.95

----------
Experiment: Cytotoxicity against HEK293-A cells assessed as cell growth inhibition at 30 uM by MTT assay relative to control
Type: toxicity, cell-based
Conditions: human
experimental_endpoint: inhibition at 30 µM (%)
The figure you give is taken to be in %; do not add the unit.

Sample O=C(/C=C/C(=O)Nc1ccc(NC(=O)c2ccc([N+](=O)[O-])o2)cc1)NCCCCCCNc1cccc2c1C(=O)N(C1CCC(=O)NC1=O)C2=O (stereo unspecified) — what was its inhibition at 30 µM?
11

----------
Experiment: Cytotoxicity against mouse C17.2 cells assessed as cell growth inhibition at 30 uM by MTT assay relative to control
Format: toxicity, cell-based
experimental_endpoint: inhibition at 30 µM (%)
The figure you give is taken to be in %; do not add the unit.

Sample O=C(/C=C/C(=O)Nc1ccc(NC(=O)c2ccc([N+](=O)[O-])o2)cc1)NCCCCCCNc1cccc2c1C(=O)N(C1CCC(=O)NC1=O)C2=O (stereo unspecified) — what was its inhibition at 30 µM?
15.6

----------
Assay: AUC (0 to infinity) in Sprague-Dawley rat at 20 mg/kg, po measured upto 48 hrs by UPLC-triple quadrupole MS analysis
Format: ADME, organism-based
Parameters: dose 20 mg/kg, time < 48 hrs, route po
Details: in vivo
experimental_endpoint: AUC(0-inf) (ng·h/mL)
The figure you give is taken to be in ng·h/mL; do not add the unit.

Sample O=C(/C=C/C(=O)Nc1ccc(NC(=O)c2ccc([N+](=O)[O-])o2)cc1)NCCCCCCNc1cccc2c1C(=O)N(C1CCC(=O)NC1=O)C2=O (stereo unspecified) — what was its AUC(0-inf)?
55.7

----------
Assay: MRT (0 to infinity) in Sprague-Dawley rat at 20 mg/kg, po measured upto 48 hrs by UPLC-triple quadrupole MS analysis
Type: ADME, organism-based
Settings: in vivo
experimental_endpoint: MRT inf
Respond with a number, then the unit of measure.

Sample O=C(/C=C/C(=O)Nc1ccc(NC(=O)c2ccc([N+](=O)[O-])o2)cc1)NCCCCCCNc1cccc2c1C(=O)N(C1CCC(=O)NC1=O)C2=O (stereo unspecified) — what was its MRT inf?
11.7 h

----------
Assay: Cmax in Sprague-Dawley rat at 2 mg/kg, iv measured upto 48 hrs by UPLC-triple quadrupole MS analysis
Type: ADME, organism-based
Set-up: dose 2 mg/kg, time < 48 hrs, route iv
Settings: in vivo
experimental_endpoint: Cmax (ng/mL)
The figure you give is taken to be in ng/mL; do not add the unit.

Sample O=C(/C=C/C(=O)Nc1ccc(NC(=O)c2ccc([N+](=O)[O-])o2)cc1)NCCCCCCNc1cccc2c1C(=O)N(C1CCC(=O)NC1=O)C2=O (stereo unspecified) — what was its Cmax?
318
